viability at 2 days, 10 µM by entry:
EXPERIMENT: Cellular toxicity in LLC/MK2 cells (MTS assay)
Format: cell-based
MEASUREMENT_PARAMETERS: rhesus monkey
Entry rule: numbers only, all in %.

Completed entries (count: 3):
COMPOUND	UNIT_DESCRIPTOR	MEASUREMENT
O=c1cc(-c2ccccc2)oc2c(Br)c(O)c(Br)c(O)c12 [4d, 6,8-Dibromo-5,7-dihydroxyflavone]	%	101
COc1cc2oc(-c3ccccc3)cc(=O)c2c(OC)c1OC	%	96.8
CCC(=O)Oc1c(OC(=O)CC)c(OC(=O)CC)c2c(=O)cc(-c3ccccc3)oc2c1Br	%	84.5

Q: I would be grateful if you could share the reported viability at 2 days, 10 µM for CCC(=O)Oc1ccc2c(=O)cc(-c3ccccc3)oc2c1 .
Ans: 115

###

EXPERIMENT: Cellular toxicity in LLC/MK2 cells (MTS assay)
Type: cell-based
MEASUREMENT_PARAMETERS: rhesus monkey; 10 μM; read-out: %Viability in LLC/MK2 cell
API: label(entry) gives Condition met if the entry's viability at 2 days, 10 µM is strictly smaller than 80%; on equality or larger values it gives Condition not met.

Q: Just wondering, is viability at 2 days, 10 µM of CCC(=O)Oc1cc2oc(-c3ccccc3)cc(=O)c2c(OC(=O)CC)c1OC(=O)CC [5d, 5,6,7-Tripropionoxyflavone] below 80%?
Ans: Condition not met

Q: Just wondering, is viability at 2 days, 10 µM of O=c1cc(-c2ccccc2)oc2cc(O)c(O)c(O)c12 [5a, baicalein] below 80%?
Ans: Condition not met

Q: Just wondering, is viability at 2 days, 10 µM of CC(=O)Oc1cc2oc(-c3ccccc3)cc(=O)c2c(OC(C)=O)c1OC(C)=O [5c, 5,6,7-Triacetoxyflavone] below 80%?
Ans: Condition not met

Q: Just wondering, is viability at 2 days, 10 µM of O=c1cc(-c2ccccc2)oc2c([N+](=O)[O-])c(O)cc(O)c12 [4e, 5,7-Dihydroxy-8-nitroflavone] below 80%?
Ans: Condition met

Q: Just wondering, is viability at 2 days, 10 µM of O=c1cc(-c2ccccc2)oc2cc(O)ccc12 [2a, 7-hydroxyflavone] below 80%?
Ans: Condition not met

###

EXPERIMENT: Cellular toxicity in LLC/MK2 cells (MTS assay)
Assay type: cell-based
MEASUREMENT_PARAMETERS: rhesus monkey
Experimental: Cytotoxicity of the compounds was also accessed at the concentration of 10 µM in parallel with the viral inhibition screening. […] Cytotoxicity was measured using CellTiter 96® Aqueous One Solution Cell Proliferation Assay (MTS) kit (Promega, Wisconsin-Madison, WI, USA) according to the manufacturer’s instruction and analyzed by EnSight Multimode Plate Reader spectrophotometry at A450nm. […]
viability at 2 days, 10 µM by entry:

Completed entries (count: 4):
COMPOUND	viability at 2 days, 10 µM
O=c1cc(-c2ccccc2)oc2c(Br)c(O)c(O)c(O)c12 [5f, 8-Bromo-5,6,7-trihydroxyflavone]	73.4%
CCC(=O)Oc1ccc2oc(-c3ccccc3)cc(=O)c2c1	89.2%
O=c1cc(-c2ccccc2)oc2ccc(O)cc12 [1a, 6-hydroxyflavone]	69.5%
COc1cc(O)c2c(=O)cc(-c3ccccc3)oc2c1 [4b, 5-Hydroxy-7-methoxyflavone]	97.5%

Q: I would be grateful if you could share the reported viability at 2 days, 10 µM for COc1cc2oc(-c3ccc(Br)cc3)cc(=O)c2c(O)c1OC [5p, 4′-Bromo-5-hydroxy-6,7-dimethoxyflavone] .
Ans: 96.8%

Q: I would be grateful if you could share the reported viability at 2 days, 10 µM for COc1cc2oc(-c3ccc([N+](=O)[O-])cc3)cc(=O)c2c(OC)c1OC .
Ans: 101%

Q: I would be grateful if you could share the reported viability at 2 days, 10 µM for O=c1cc(-c2ccccc2)oc2cc(OCc3ccccc3)cc(O)c12 [4c, 7-Benzyloxy-5-hydroxyflavone] .
Ans: 86.1%
